experiment_description: chemical genetic growth profiling, strain panel (AID 1159580);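 note: tested at 20 µM; growth read once vehicle control cultures reached saturation at 30 °C; 1 = growth at the plate median or of vehicle wells; lower values mean less growth of the strain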
conditions_used: S. cerevisiae deletion strains, growth OD, locus YOL006C, strain TOP1
Screen size: about 5,500 compounds; about 2,000 (36%) were called active. About 18% were inconclusive and are not listed. Cut-off read from the data, not from the text of the source: active = normalized growth mostly below about 0.91 (no sharp cut-off); inconclusive = no clear call, values can overlap the other calls; inactive = mostly above about 0.92. The list shows a part of the results.
Reply using exactly one outcome from active, inactive

These recorded examples may help you get a feel for the data.
>>> category("CSc1nc(N)nc(N2CCCCC2)n1")
"inactive"
>>> category("c1cc(C2CCCCC2)ccc1C1CCCCC1")
"inactive"
>>> category("COC(=O)[C@]1(C)CC[C@]2(C)CC[C@]3(C)C4=CC=C5C(=CC(=O)C(O)=C5C)[C@]4(C)CC[C@@]3(C)[C@@H]2C1")
"active"

Query block: # lookup: test call for CC(=O)OCC(=O)[C@@]12OC3(CCCC3)O[C@@H]1CC1C3CCC4=CC(=O)C=C[C@]4(C)[C@@]3(F)[C@@H](O)C[C@@]12C (stereo not given in full)
Result block: inactive

Query block: Could you please tell me the result logged for `O=C(Nc1cccnc1)c1cccc(Cl)c1Cl` in this assay?
Result block: inactive

----------
experiment_description: chemical genetic growth profiling, strain panel (AID 1159580);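 note: tested at 20 µM; growth read once vehicle control cultures reached saturation at 30 °C; 1 = growth at the plate median or of vehicle wells; lower values mean less growth of the strain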
conditions_used: S. cerevisiae deletion strains, growth OD, locus YJL187C, strain SWE1, stronger effect = lower value
Hit rate of the full screen: of about 5,500 compounds, about 2,000 (36%) were called active. Inconclusive results (about 18%) are left out. This is one part of the list.
normalized growth listing for selected compounds.
Response field accepts a number only; no unit should be typed.

>>> measured_result("Cc1cc(=O)n(-c2ccccc2)n1C")
0.996

Measured normalized growth, `CCOc1ccc(C(=O)c2ccc(O)c(O)c2O)cc1` : 0.915

The compound listed as `COc1ccc(C(=O)c2ccccc2)c(O)c1O` shows normalized growth equal to 0.971

normalized growth in this record for C=C(C)[C@@H]1CC[C@]2(CO)CC[C@]3(C)[C@H](CCC4[C@@]5(C)CC[C@H](O)C(C)(C)C5CC[C@]43C)C12 (stereo partly specified) : 1.01

So, `COc1cc(O)cc(OC)c1OC` ? Its normalized growth was 0.977

Lab note: `CCOc1ccc(C(=O)c2ccc(OC)c(O)c2O)cc1` gave normalized growth of 1

----------
experiment_description: chemical genetic growth profiling, strain panel (AID 1159580);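 note: tested at 20 µM; growth read once vehicle control cultures reached saturation at 30 °C; 1 = growth at the plate median or of vehicle wells; lower values mean less growth of the strain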
conditions_used: S. cerevisiae deletion strains, growth OD, locus YOR080W, strain dia2, stronger effect = lower value
Among all 5,500 compounds or so, about 2,000 (36%) were called active. Another 18% or so got no clear call; they are omitted. Some of the results follow.
Returns: string. Value is Yes if measured normalized growth is below 1, and No if it is greater than or equal to it.

Worked set:
>>> category("CC(=O)OCC(=O)[C@@]12OC3(CCCC3)O[C@@H]1CC1C3CCC4=CC(=O)C=C[C@]4(C)[C@@]3(F)[C@@H](O)C[C@@]12C (stereo not given in full)")
"No"
>>> category("NC(=O)NO")
"No"

Shifting focus to the compound that follows.
Query block: normalized growth under 1? Item: C#C[C@]1(O)CCC2C3CCC4=Cc5oncc5C[C@]4(C)C3CC[C@@]21C (stereo not given in full)
Result block: Yes

----------
experiment_description: chemical genetic growth profiling, strain panel (AID 1159580);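 note: tested at 20 µM; growth read once vehicle control cultures reached saturation at 30 °C; 1 = growth at the plate median or of vehicle wells; lower values mean less growth of the strain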
conditions_used: S. cerevisiae deletion strains, growth OD, locus YNL183C, strain NPR1
Hit rate of the full screen: of about 5,500 compounds, about 2,000 (36%) were called active. About 18% were inconclusive and are not listed. Rule as the data show it: active = normalized growth mostly below about 0.91 (no sharp cut-off); inconclusive = no clear call, values can overlap the other calls; inactive = mostly above about 0.92. The list shows a part of the results. Where a SMILES comes first, the peptide text is derived from it. Bridges are numbered along the chain shown (N, C = ends). [ ]: non-standard residue; d: D form. The star is where a group is joined. Octanoyl(6-Me) = CCC(C)CCCCC(=O)*; Dab = NCC[CH](N)C(=O)O
Give your call using only these classes: True (active), False (inactive)

Consider the worked cases shown below.
>>> category("CCC(C)CCCCC(=O)NC(CCN)C(=O)NC(C(=O)NC(CCN)C(=O)NC1CCNC(=O)C(C(C)O)NC(=O)C(CCN)NC(=O)C(CCN)NC(=O)C(CC(C)C)NC(=O)C(Cc2ccccc2)NC(=O)C(CCN)NC1=O)C(C)O (stereo unspecified) ({Octanoyl(6-Me)}-[Dab]T[Dab][Dab][Dab]FL[Dab][Dab]T; lactam 4-C; configuration not given here)")
"False"
>>> category("CN1c2ccccc2C(C)(C)C12C=Cc1cc(O)ccc1O2 (stereo unspecified)")
"False"
>>> category("CC1(C)C=Cc2cc3ccc(=O)oc3cc2O1")
"False"
>>> category("CCOC([O-])=Nc1c[n+](N2CCOCC2)no1")
"False"
>>> category("C=C(C)[C@H]1Cc2c(ccc3c2O[C@@H]2COc4cc(OC)c(OC)cc4[C@@H]2C3=O)O1")
"False"
>>> category("CCCCCCCCCCCCCCCCCCOCC(O)CO (stereo unspecified)")
"False"

Could you now look at the following molecule, please?
Query block: Would you mind telling me which call this test gave `COc1ccc2c(c1)[C@]13CCCC[C@H]1[C@H](C2)N(C)CC3` ?
Result block: False
